Measured normalized growth values are reported for all entries that follow.
assay_remarks: chemical genetic growth profiling, strain panel (AID 1159580);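 note: tested at 20 µM; growth read once vehicle control cultures reached saturation at 30 °C; 1 = growth at the plate median or of vehicle wells; lower values mean less growth of the strain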
condition_summary: S. cerevisiae deletion strains, growth OD, locus YDR392W, strain spt3, hits give low values
In all, about 5,500 compounds went through this assay and about 2,000 (36%) were called active. Inconclusive results (about 18%) are left out. The list shows a part of the results.
Reply with just the number.

CCc1ccc2c(O)c3c(cc2c1C(=O)OC)C(=O)c1c(O)ccc(O)c1C3=O; 0.926
C[C@H]1[C@H](C)CC[C@]2(C(=O)O)CC[C@]3(C)C(=CCC4[C@@]5(C)C[C@@H](O)[C@H](O)[C@@](C)(CO)C5CC[C@]43C)[C@H]12 (some centres undefined); 0.931
C/C=C/CC(C)C(O)C1C(=O)NC(CC)C(=O)N(C)CC(=O)N(C)C(CC(C)C)C(=O)NC(C(C)C)C(=O)N(C)C(CC(C)C)C(=O)NC(C)C(=O)NC(C)C(=O)N(C)C(CC(C)C)C(=O)N(C)C(CC(C)C)C(=O)N(C)C(C(C)C)C(=O)N1C (centres undefined); 0.873

IN: Value lookup for normalized growth; key = CC1(C)S[C@@H]2C(N3C(=O)[C@@H](c4ccccc4)NC3(C)C)C(=O)N2[C@H]1C(=O)O (some centres undefined)
OUT: 0.952

IN: Value lookup for normalized growth; key = COc1cccc2c1CCC1=CC(=O)CC[C@@]12C
OUT: 0.984

IN: Value lookup for normalized growth; key = CCCc1nn(C)c2c(=O)[nH]c(-c3cc(S(=O)(=O)N4CCN(C)CC4)ccc3OCC)nc12
OUT: 0.989

IN: Value lookup for normalized growth; key = COC1C(O)C(O[C@H]2CC[C@]3(C=O)C4C(CC[C@]3(O)C2)[C@@]2(O)CC[C@H](C3=CC(=O)OC3)[C@@]2(C)C[C@H]4OC(C)=O)OC(C)C1OC(C)=O (some centres undefined)
OUT: 1.04

IN: Value lookup for normalized growth; key = CC1(C)S[C@@H]2[C@H](NC(=O)[C@@H](N)c3ccc(O)cc3)C(=O)N2[C@H]1C(=O)O
OUT: 0.936

IN: Value lookup for normalized growth; key = NCCCC(O)(P(=O)(O)O)P(=O)(O)O
OUT: 0.964

IN: Value lookup for normalized growth; key = O=C(O)CCc1nc(-c2ccccc2)c(-c2ccccc2)o1
OUT: 0.831

IN: Value lookup for normalized growth; key = CC(C)(C)NCC(O)COc1cccc2c1CCCC2=O (centres undefined)
OUT: 0.992

====

assay_remarks: chemical genetic growth profiling, strain panel (AID 1159580);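 note: tested at 20 µM; growth read once vehicle control cultures reached saturation at 30 °C; 1 = growth at the plate median or of vehicle wells; lower values mean less growth of the strain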
condition_summary: S. cerevisiae deletion strains, growth OD, locus YLL001W, strain dnm1, hits give low values
In all, about 5,500 compounds went through this assay and about 2,000 (36%) were called active. Another 18% or so got no clear call; they are omitted. The list shows a part of the results.
measured_parameter: normalized growth
Reply with just the number.

Take a look at these entries with their results.
O=c1c(O)cc([C@H]2Oc3cc(O)cc(O)c3C[C@H]2O)cc2c([C@H]3Oc4cc(O)cc(O)c4C[C@H]3O)cc(O)c(O)c12; 1.03
CC1=C2C(O)C(=O)OC3CC4C(C)(C)C(=O)C=C[C@]4(C)C(CC1)[C@]23C (some centres not stated); 0.992
COc1ccc(-c2cc(=O)c3c(O)cc(O)cc3o2)cc1; 0.954
O=C(/C=C(\O)c1ccccc1)c1ccccc1O; 0.769
COc1ccc(-c2cc(=O)c3c(O)c(OC)c(OC)c(OC)c3o2)cc1OC; 0.984
CCc1ccc2c(O)c3c(cc2c1C(=O)OC)C(=O)c1c(O)ccc(O)c1C3=O; 0.973
COc1cc2c(cc1OC)-c1c(oc3cc(O)cc(O)c3c1=O)CO2; 1.02
CN(C)C(=O)C(CCN1CCC(O)(c2ccc(Cl)cc2)CC1)(c1ccccc1)c1ccccc1; 0.971
Cc1ccc(-c2nc3ccc(C)cn3c2CC(=O)N(C)C)cc1; 0.988
NC[C@@H]1O[C@H](O[C@@H]2[C@@H](CO)OC(O[C@@H]3[C@@H](O)[C@H](N)C[C@H](N)[C@H]3O[C@H]3O[C@H](CO)[C@@H](O)[C@H](O)[C@H]3N)[C@@H]2O)[C@H](N)[C@@H](O)[C@@H]1O (some centres not stated); 0.985

IN: Value lookup for normalized growth; key = Cc1c(OCC(F)(F)F)ccnc1CS(=O)c1nc2ccccc2[nH]1 (configuration not stated)
OUT: 1.01

IN: Value lookup for normalized growth; key = Nc1ccc(S(=O)(=O)Nc2ncccn2)cc1
OUT: 0.977

IN: Value lookup for normalized growth; key = CC1(C)S[C@@H]2C(N3C(=O)[C@@H](c4ccccc4)NC3(C)C)C(=O)N2[C@H]1C(=O)O (some centres not stated)
OUT: 1.04

IN: Value lookup for normalized growth; key = COc1ccc(-c2cc(=O)c3c(O)c(OC)c(O[C@H]4O[C@H](CO[C@@H]5O[C@@H](C)[C@H](O)[C@@H](O)[C@H]5O)[C@@H](O)[C@H](O)[C@H]4O)cc3o2)cc1
OUT: 1
